Details: in methanol, 292.15 K
recorded.metric: solubility (mole fraction)
// no unit string in output, number only

Find the recorded solubility (mole fraction) belonging to `O=c1c2ccccc2sc2ccc(Cl)cc12` and report it. 0.000192

====

Details: in isopropanol, 314.95 K
recorded.metric: solubility (mole fraction)
// no unit string in output, number only

Find the recorded solubility (mole fraction) belonging to `O=c1c2ccccc2sc2ccc(Cl)cc12` and report it. 0.00137

====

Conditions: in n-propanol, 290.65 K
recorded.metric: solubility (mole fraction)

Find the recorded solubility (mole fraction) belonging to `O=c1c2ccccc2sc2ccc(Cl)cc12` and report it. 0.000647

====

Details: in 1,4-dioxane, 290.35 K
recorded.metric: solubility (mole fraction)
// no unit string in output, number only

Find the recorded solubility (mole fraction) belonging to `O=c1c2ccccc2sc2ccc(Cl)cc12` and report it. 0.00155
